# Experimental Protocol: CREB reporter modulators without forskolin, primary screen, cell-based, PC12, CRE-LacZ reporter, unstimulated (AID 1145)
# Condition Label: no forskolin, luminescence, 4.5 h, higher = more signal, called active from +8 up or from −8 down
t means recorded z-score is 0.04 or above; f means it is below 0.04.

Exam item: Please check the record CC(C)(C)OC(=O)CC[C@@]1(C(=O)O)N=C(c2ccc(OCCCO)cc2)O[C@@H]1c1ccccc1 and state if its z-score is at or above 0.04.
Marked response: f

Exam item: Please check the record NC(=O)NCC#Cc1ccc2c(c1)[C@]1(C(=O)N2)[C@H](C(=O)O)[C@H]2C(=O)O[C@H](c3ccccc3)[C@H](c3ccccc3)N2[C@@H]1c1ccccc1OCCO and state if its z-score is at or above 0.04.
Marked response: f

Exam item: Please check the record CN1C(=O)[C@@]2(CCS(=O)(=O)c3ccccc3)N=C(c3ccc(OCCCO)cc3)O[C@H]2c2ccccc21 and state if its z-score is at or above 0.04.
Marked response: t

Exam item: Please check the record C=CCOC(=O)[C@@H]1[C@H]2C(=O)O[C@H](c3ccccc3)[C@H](c3ccccc3)N2[C@H](c2ccc(OCCOC(=O)[C@H]3C[C@H]4C(=O)N[C@@H](CCCC[N+](C)(C)C)C(=O)N4[C@H]3c3ccc(O)cc3)cc2)[C@@]12C(=O)Nc1ccc(I)cc12 and state if its z-score is at or above 0.04.
Marked response: t

Exam item: Please check the record COC(=O)[C@@]1(Cc2ccc(F)cc2)[C@H]2c3cc(C(=O)N4CCCC4)n(CCc4c[nH]c5ccc(OC)cc45)c3C[C@H]2CN1C(=O)c1ccccc1 and state if its z-score is at or above 0.04.
Marked response: f

Exam item: Please check the record O=C(CCCCCCC(=O)Nc1ccccc1)N/N=C/c1ccccc1 and state if its z-score is at or above 0.04.
Marked response: t
